Exercise: state measured MIC for each of the molecules provided.
Test system: Staphylococcus aureus FDA 209P
Test: antimicrobial activity, MIC
Assay type: cell-based
Settings: Staphylococcus aureus, FDA209P, read-out: MIC
A number alone suffices; assume µg/mL.

Provide the documented MIC with Staphylococcus aureus FDA 209P as the system for `CCCCOc1ccccc1C(=C(Br)Br)n1ccnc1` 25

Next entry: CCCCCOc1ccccc1C(=CSCC)n1ccnc1 (single isomer, unassigned) 12.5

Next record, please: CCCCOc1ccccc1C(=CSCc1ccccc1)n1ccnc1 (single isomer, unassigned) 25

Here is the next molecule: CCCOc1ccccc1C(=CSCc1ccccc1)n1ccnc1 (single isomer, unassigned) 12.5

Try the molecule `CCOc1ccccc1C(=CSCc1ccccc1)n1ccnc1` 50

Proceed to CCCCSC=C(c1ccccc1OCCC)n1ccnc1 (single isomer, unassigned) 12.5

Now the same for CCCCCSC=C(c1ccccc1OCC)n1ccnc1 (single isomer, unassigned) 12.5

Another molecule to look at: CCCOc1ccccc1C(=CSc1ccccc1)n1ccnc1 (single isomer, unassigned) 25

Try CCCOc1ccccc1C(=CSCCC)n1ccnc1 (single isomer, unassigned) next. 25

Now try CCCCCCOc1ccccc1C(=COC)n1ccnc1 (single isomer, unassigned) . 12.5

Same question, CCCCCCOc1ccccc1C(=CSC)n1ccnc1 (single isomer, unassigned) this time 12.5

Then what about the molecule CCCCCCOc1ccccc1C(=CCl)n1ccnc1 (single isomer, unassigned) ? 12.5

----------
System: Microsporum cookei IFO 8303
Assay: antimicrobial activity, MIC
Format: cell-based
Conditions: Microsporum cookei IFO 8303
OUTCOME MEASURE: MIC

I would be grateful if you could share the reported MIC for CCCOc1ccccc1C(=CSc1ccccc1)n1ccnc1 (single isomer, unassigned) [Compound 65] . 100 µg/mL

Would you mind doing CCCOc1ccccc1C(=CSc1ccccc1)n1ccnc1 (single isomer, unassigned) [Compound 64] as well? 12.5 µg/mL

Please do the same for CCCOc1ccccc1C(=CSCc1ccccc1)n1ccnc1 (single isomer, unassigned) [Compound 4] as well. 1.56 µg/mL

Try CCCOc1ccccc1C(=CSCc1ccccc1)n1ccnc1 (single isomer, unassigned) [Compound 3] next. 6.25 µg/mL

----------
Tested on: Microsporum audounii IFO 6074
Experiment: antimicrobial activity, MIC
Type: cell-based
Conditions: Microsporum, IFO6074, Microsporum audounii IFO 6074; read-out: MIC
Task for the reader: assign each of the following compounds its reported MIC.

Given the entry CCCOc1ccccc1C(=CSCCC)n1ccnc1 (single isomer, unassigned) , what MIC was observed with Microsporum audounii IFO 6074? < 0.2 µg/mL

What about this compound? CCCCSC=C(c1ccccc1OCCC)n1ccnc1 (single isomer, unassigned) < 0.2 µg/mL

Next record, please: CCCCCCOc1ccccc1C(=CCl)n1ccnc1 (single isomer, unassigned) < 0.2 µg/mL

And CCCOc1ccccc1C(=CSCc1ccccc1)n1ccnc1 (single isomer, unassigned) ? < 0.2 µg/mL

Continue with `CCOc1ccccc1C(=CSCc1ccccc1)n1ccnc1` < 0.2 µg/mL

Same again, this time with CCCCCCOc1ccccc1C(=COC)n1ccnc1 (single isomer, unassigned) 0.78 µg/mL

Entry CCCCCSC=C(c1ccccc1OCC)n1ccnc1 (single isomer, unassigned) please < 0.2 µg/mL

Input CCCCCCOc1ccccc1C(=CSC)n1ccnc1 (single isomer, unassigned) < 0.2 µg/mL

----------
Test system: Staphylococcus epidermidis ATCC 12228
Test: antimicrobial activity, MIC
Format: cell-based
Conditions: Staphylococcus epidermidis, ATCC12228, Staphylococcus epidermidis ATCC 12228; read-out: MIC
OUTCOME MEASURE: MIC (µg/mL)
Only the number, expressed in µg/mL, is required.

Look up MIC: `CCOc1ccccc1C(=CSCc1ccccc1)n1ccnc1` 25

Consider next the compound CCCCOc1ccccc1C(=CSCc1ccccc1)n1ccnc1 (single isomer, unassigned) in the same way. 6.25

Param item: CCCOc1ccccc1C(=CSCCC)n1ccnc1 (single isomer, unassigned) 25

Further, for CCCCSC=C(c1ccccc1OCCC)n1ccnc1 (single isomer, unassigned) ? 6.25

----------
System: Debaryomyces kloeckeri IFO 0015
Experiment: antimicrobial activity, MIC
Type: cell-based
Settings: IFO0015, read-out: MIC
Lab note: cut-off is 6 mg/L. Strictly less in MIC is T. Exactly 6 mg/L or more is F.

Regarding CCCCCCOc1ccccc1C(=COC)n1ccnc1 (single isomer, unassigned) , kindly confirm whether its MIC is beneath 6 mg/L. T

What do you have for CCCCSC=C(c1ccccc1OCCC)n1ccnc1 (single isomer, unassigned) ? F

Same lookup for CCCCCOc1ccccc1C(=CSCC)n1ccnc1 (single isomer, unassigned) , please. T

Try this molecule next: `CCOc1ccccc1C(=CSCc1ccccc1)n1ccnc1` F

What do we get for CCCCCSC=C(c1ccccc1OCC)n1ccnc1 (single isomer, unassigned) ? F

Repeat with CCCOc1ccccc1C(=CSCc1ccccc1)n1ccnc1 (single isomer, unassigned) F

Same again, this time with CCCOc1ccccc1C(=CSCCC)n1ccnc1 (single isomer, unassigned) F

Please answer likewise for `CCCCOc1ccccc1C(=C(Br)Br)n1ccnc1` F

Input CCCCCCOc1ccccc1C(=CSC)n1ccnc1 (single isomer, unassigned) T

Another molecule: CCCCOc1ccccc1C(=CSCc1ccccc1)n1ccnc1 (single isomer, unassigned) F

And the next one, CCCCCCOc1ccccc1C(=CCl)n1ccnc1 (single isomer, unassigned) ? F

Ok, now CCCOc1ccccc1C(=CSc1ccccc1)n1ccnc1 (single isomer, unassigned) F

----------
System: Microsporum cookei IFO 8303
Assay: antimicrobial activity, MIC
Format: cell-based
Settings: Paraphyton cookei, IFO8303, Microsporum cookei IFO 8303; read-out: MIC
Consider the following molecules; for each one, report its MIC.
Field: numeric (µg/mL). Do not append units.

Quick one: MIC for CCCOc1ccccc1C(=CSCCC)n1ccnc1 (single isomer, unassigned) ? 1.56

Moving on to the next molecule: `CCCCOc1ccccc1C(=C(Br)Br)n1ccnc1` 12.5

// next record CCCCCOc1ccccc1C(=CSCC)n1ccnc1 (single isomer, unassigned) 1.56

Note, next up: CCCCCCOc1ccccc1C(=CCl)n1ccnc1 (single isomer, unassigned) 6.25

And what about the molecule CCCCSC=C(c1ccccc1OCCC)n1ccnc1 (single isomer, unassigned) ? 1.56

Can you handle CCCCCCOc1ccccc1C(=COC)n1ccnc1 (single isomer, unassigned) next? 6.25

Try this molecule too: CCCCCSC=C(c1ccccc1OCC)n1ccnc1 (single isomer, unassigned) 1.56

Item: `CCOc1ccccc1C(=CSCc1ccccc1)n1ccnc1` 12.5

Continue with CCCCOc1ccccc1C(=CSCc1ccccc1)n1ccnc1 (single isomer, unassigned) 12.5

----------
Could you please report measured MIC for the items listed next?
System: Pyricularia oryzae IAM 5016
Experiment: microbe, parasite or virus in culture
Assay type: cell-based
Settings: Pyricularia oryzae, IAM5016, Pyricularia oryzae IAM 5016

Param readout= MIC; system= Pyricularia oryzae IAM 5016; entry= CCCCOc1ccccc1C(=C(Br)Br)n1ccnc1 [Compound 93] ; returns value. 0.39 µg/mL

And CCCCCSC=C(c1ccccc1OCC)n1ccnc1 (single isomer, unassigned) [Compound 49] ? < 0.2 µg/mL

Next entry: CCCCSC=C(c1ccccc1OCCC)n1ccnc1 (single isomer, unassigned) [Compound 46] < 0.2 µg/mL

Moving on to CCCOc1ccccc1C(=CSCc1ccccc1)n1ccnc1 (single isomer, unassigned) [Compound 3] < 0.2 µg/mL

Same thing, different compound: CCCCCCOc1ccccc1C(=CSC)n1ccnc1 (single isomer, unassigned) [Compound 27] < 0.2 µg/mL

What about this compound? CCCCCCOc1ccccc1C(=COC)n1ccnc1 (single isomer, unassigned) [Compound 73] 1.56 µg/mL

Also, CCCOc1ccccc1C(=CSCCC)n1ccnc1 (single isomer, unassigned) [Compound 39] please. < 0.2 µg/mL

----------
Test system: Staphylococcus epidermidis ATCC 12228
Test: antimicrobial activity, MIC
Assay type: cell-based
Conditions: Staphylococcus epidermidis, ATCC12228, Staphylococcus epidermidis ATCC 12228; read-out: MIC
OUTCOME MEASURE: MIC (µg/mL)
Provide only the numeric value, understood in µg/mL.

Any idea what MIC was measured for CCCCCOc1ccccc1C(=CSCC)n1ccnc1 (single isomer, unassigned) ? 3.12

Same question, CCCCCCOc1ccccc1C(=CCl)n1ccnc1 (single isomer, unassigned) this time 6.25

Ok, now CCCCCCOc1ccccc1C(=CSC)n1ccnc1 (single isomer, unassigned) 6.25

One more compound: `CCCCOc1ccccc1C(=C(Br)Br)n1ccnc1` 25

Another: CCCOc1ccccc1C(=CSc1ccccc1)n1ccnc1 (single isomer, unassigned) 6.25

Lookup CCCCCCOc1ccccc1C(=COC)n1ccnc1 (single isomer, unassigned) 6.25

Same question for CCCCCSC=C(c1ccccc1OCC)n1ccnc1 (single isomer, unassigned) please. 3.12

----------
Tested on: Microsporum gypseum IFO 8231
Experiment: antimicrobial activity, MIC
Assay type: cell-based
Conditions: Nannizzia gypsea, IFO8231, Microsporum gypseum IFO 8231; read-out: MIC
OUTCOME MEASURE: MIC

Can you look up MIC on Microsporum gypseum IFO 8231 for CCCCOc1ccccc1C(=CSCc1ccccc1)n1ccnc1 (single isomer, unassigned) [Compound 8] ? 0.39 µg/mL

Again, but for CCCCCSC=C(c1ccccc1OCC)n1ccnc1 (single isomer, unassigned) [Compound 49] < 0.2 µg/mL

Next up: CCOc1ccccc1C(=CSCc1ccccc1)n1ccnc1 [Compound 7] 1.56 µg/mL

How about this molecule: CCCCCCOc1ccccc1C(=CSC)n1ccnc1 (single isomer, unassigned) [Compound 27] < 0.2 µg/mL

Then CCCCOc1ccccc1C(=C(Br)Br)n1ccnc1 [Compound 93] ? 6.25 µg/mL

Now the same for CCCCSC=C(c1ccccc1OCCC)n1ccnc1 (single isomer, unassigned) [Compound 46] < 0.2 µg/mL

Next molecule: CCCCCOc1ccccc1C(=CSCC)n1ccnc1 (single isomer, unassigned) [Compound 34] < 0.2 µg/mL

One more molecule: CCCOc1ccccc1C(=CSCc1ccccc1)n1ccnc1 (single isomer, unassigned) [Compound 3] < 0.2 µg/mL

Data credit: patent US4740601A
